# Test system: Strain Aichi of type A human influenza virus
# Assay type: in vivo
# condition_context: series with Control - 2 (34.5); 500 µg/kg orally
Marks after values point to notes of the source that are not given here.
Listed below: Survival rate in percent values for each entry.

- CCCCCCCNC(=O)Cc1c[nH]cn1: 76.6*^2%
- NCCCC(=O)NCCc1c[nH]cn1: 79.3*^2%
- CC(=O)N[C@@H](CCC(=O)NCCc1c[nH]cn1)C(=O)O: 79.3*^2%

Please examine the following record next.
Any idea what its Survival rate in percent is? The compound is `O=C(O)CCCC(=O)NCCc1c[nH]cn1` 76.6*^2%

###

# Test system: Lewis pulmonary carcinoma (LLC)
# test_summary: Lewis pulmonary carcinoma spontaneous metastasizing, oral administration
# Type: in vivo
# condition_context: BDF1 female mice with LLC; oral 24 days, 500 µg/kg
readout_kind: Metastasizing inhibition percent
Number first, unit second.

Any idea what its Metastasizing inhibition percent is? The compound is `COC(=O)[C@H](Cc1c[nH]cn1)NC(=O)CCCC(=O)O` 24.0%

Any idea what its Metastasizing inhibition percent is? The compound is `CC(=O)N[C@@H](CCC(=O)NCCc1c[nH]cn1)C(=O)O` 17.0%

Any idea what its Metastasizing inhibition percent is? The compound is `O=C(O)CCC(=O)NCCc1c[nH]cn1` 30.0%

Any idea what its Metastasizing inhibition percent is? The compound is `O=C(O)CCCC(=O)NCCc1c[nH]cn1` 42.0%

###

# Tested on: hydroxyl radical
# test_summary: Hydroxyl radical formation in the Fenton reagent (chemiluminescence)
# Type: biochemical
# condition_context: 1 mM
Counter-ions that a name gives are not always drawn.
Listed below: relative effect: I+/I- values for each entry.
Respond with the number and no other words.

Worked examples, 5 compounds total:
* O=C(O)CCCC(=O)NCCc1ccccn1 [compound XX, N-GLUTARYL-2-(2-AMINOETHYL)PYRIDINE] | 0.11
* COC(=O)[C@H](Cc1c[nH]cn1)NC(=O)CCCC(=O)O [IX, N-GLUTARYL-L-HISTIDINE METHYL ETHER] | 0.20
* CC(=O)N[C@@H](CCC(=O)NCCc1c[nH]cn1)C(=O)O [VI, N -ACETHYL-γ-L-GLUTAMYLHISTAMINE] | 0.05
* N[C@H](CCC(=O)NCCc1c[nH]cn1)C(=O)O [compound XLV, γ -L-, D-glutamylhistamine] | 0.16
* O=C(O)CCCC(=O)NCCN1CCOCC1 [XIX, N-GLUTARYL-4-(2-AMINOETHYL)MORPHOLINE] | 0.13

// fetch hydroxyl radical relative effect: I+/I- for COC(=O)[C@@H](N)CCC(=O)N[C@@H](Cc1c[nH]cn1)C(=O)O.Cl.Cl [compound XI] 0.50

// fetch hydroxyl radical relative effect: I+/I- for O=C(O)CCCC(=O)NCCc1c[nH]cn1 [compound III, N-GLUTARYLHISTAMINE] 0.15

// fetch hydroxyl radical relative effect: I+/I- for COC(=O)[C@H](Cc1c[nH]cn1)NC(=O)CC[C@H](N)C(=O)O [compound VII, DIHYDROCHLORIDE] 0.15

// fetch hydroxyl radical relative effect: I+/I- for O=C(O)CCC(=O)NCCc1c[nH]cn1 [compound II, N-SUCCINYLHISTAMINE] 0.16

// fetch hydroxyl radical relative effect: I+/I- for O=C(O)CCCC(=O)NCCc1ccccc1 [XXI] 0.05
